I'd be grateful if you could share measured ED50 for these entries.
- System: Mus musculus
- assay details: Bronchosecretory activity measured as tracheal secretion of phenol red in mouse after oral administration
- Assay type: functional
- measurement setup: Mus musculus, po

Incoming: Report ED50, nothing else, for this compound: c1cnc(SCc2ccncc2)nc1
Outgoing: 41.7 µmol/kg

Incoming: Report ED50, nothing else, for this compound: Clc1ncccc1CSc1ncccn1
Outgoing: 84.1 µmol/kg

Incoming: Report ED50, nothing else, for this compound: c1cncc(CSC2=NCCS2)c1
Outgoing: 20.3 µmol/kg

Incoming: Report ED50, nothing else, for this compound: Nc1c(Br)cc(Br)cc1CN[C@H]1CC[C@H](O)CC1
Outgoing: 603 µmol/kg

Incoming: Report ED50, nothing else, for this compound: Clc1ccc(CSc2ncccn2)cn1
Outgoing: 84.1 µmol/kg

Incoming: Report ED50, nothing else, for this compound: Cn1ccnc1SCc1cccnc1
Outgoing: 5.35 µmol/kg

Incoming: Report ED50, nothing else, for this compound: c1cncc(CSc2nc3ncccc3o2)c1
Outgoing: 38 µmol/kg

Incoming: Report ED50, nothing else, for this compound: Oc1ccnc(SCc2cccnc2)n1
Outgoing: 456 µmol/kg

Incoming: Report ED50, nothing else, for this compound: c1ccc(CSc2nc3ccccc3o2)nc1
Outgoing: 157 µmol/kg

Incoming: Report ED50, nothing else, for this compound: Nc1cc(O)nc(SCc2cccnc2)n1
Outgoing: 8.93 µmol/kg

Incoming: Report ED50, nothing else, for this compound: Cc1ccnc([S+]([O-])Cc2cccnc2)n1 (stereo not given)
Outgoing: 30.9 µmol/kg

Incoming: Report ED50, nothing else, for this compound: [O-][S+](Cc1cccnc1)c1ncccn1 (stereo not given)
Outgoing: 7.82 µmol/kg

Incoming: Report ED50, nothing else, for this compound: c1cncc(CSc2nc3ccccc3[nH]2)c1
Outgoing: 31.8 µmol/kg

Incoming: Report ED50, nothing else, for this compound: Cc1ccnc(SCc2cccnc2)n1
Outgoing: 39.4 µmol/kg

Incoming: Report ED50, nothing else, for this compound: Cc1cc(O)nc(SCc2cccnc2)n1
Outgoing: 64.3 µmol/kg

Incoming: Report ED50, nothing else, for this compound: Cc1ccc(SCc2cccnc2)cc1
Outgoing: 39.7 µmol/kg

Incoming: Report ED50, nothing else, for this compound: Cn1ccnc1[S+]([O-])Cc1cccnc1 (stereo not given)
Outgoing: 49.8 µmol/kg

Incoming: Report ED50, nothing else, for this compound: c1cncc(CSc2ncnc3[nH]ncc23)c1
Outgoing: 41.1 µmol/kg

Incoming: Report ED50, nothing else, for this compound: Nc1cc(O)nc(SCc2ccc(Cl)nc2)n1
Outgoing: 8.3 µmol/kg

Incoming: Report ED50, nothing else, for this compound: CC(Sc1ncccn1)c1cccnc1 (stereo not given)
Outgoing: 42.6 µmol/kg

Incoming: Report ED50, nothing else, for this compound: Cc1cc(C)nc(SCc2cccnc2)n1
Outgoing: 44.8 µmol/kg

Incoming: Report ED50, nothing else, for this compound: Nc1ccnc(SCc2cccnc2)n1
Outgoing: 22.9 µmol/kg

Incoming: Report ED50, nothing else, for this compound: [O-][S+](Cc1cccnc1)c1ccc(Cl)cc1 (stereo not given)
Outgoing: 43.9 µmol/kg

Incoming: Report ED50, nothing else, for this compound: O=S(=O)(Cc1cccnc1)c1ccc(Cl)cc1
Outgoing: 27.9 µmol/kg

Incoming: Report ED50, nothing else, for this compound: c1ccc(-c2nc(SCc3cccnc3)oc2-c2ccccc2)cc1
Outgoing: 13.1 µmol/kg

Incoming: Report ED50, nothing else, for this compound: Cn1ccnc1S(=O)(=O)Cc1cccnc1
Outgoing: 95.8 µmol/kg

Incoming: Report ED50, nothing else, for this compound: Clc1ccc(SCc2cccnc2)cc1
Outgoing: 22 µmol/kg

Incoming: Report ED50, nothing else, for this compound: c1cncc(CSc2ccc3ccccc3n2)c1
Outgoing: 21.5 µmol/kg

Incoming: Report ED50, nothing else, for this compound: COc1cccc(SCc2cccnc2)c1
Outgoing: 182 µmol/kg

Incoming: Report ED50, nothing else, for this compound: Cc1ccc([S+]([O-])Cc2cccnc2)cc1 (stereo not given)
Outgoing: 149 µmol/kg

---

- System: Mus musculus
- assay details: Bronchosecretory activity measured as tracheal secretion of phenol red in mouse after oral administration
- Format: functional
- measurement setup: Mus musculus, po
Rule for this label: fulfilled means ED50 is less than 50 µmol/kg; not fulfilled means ED50 is at least 50 µmol/kg.

Incoming: I'd appreciate it if you could check whether c1cncc(CSc2nc3ccccc3o2)c1 has ED50 smaller than 50 µmol/kg.
Outgoing: not fulfilled

Incoming: I'd appreciate it if you could check whether c1ccc(SCc2cccnc2)nc1 has ED50 smaller than 50 µmol/kg.
Outgoing: fulfilled

Incoming: I'd appreciate it if you could check whether Cc1ccc(S(=O)(=O)Cc2cccnc2)cc1 has ED50 smaller than 50 µmol/kg.
Outgoing: not fulfilled

Incoming: I'd appreciate it if you could check whether c1cnc(SCc2cccnc2)nc1 has ED50 smaller than 50 µmol/kg.
Outgoing: fulfilled

Incoming: I'd appreciate it if you could check whether c1ccc(CSc2ccccn2)nc1 has ED50 smaller than 50 µmol/kg.
Outgoing: fulfilled

Incoming: I'd appreciate it if you could check whether N=c1cc(N)nc(SCc2cccnc2)[nH]1 has ED50 smaller than 50 µmol/kg.
Outgoing: not fulfilled

Incoming: I'd appreciate it if you could check whether Cc1ccc(CSc2ncccn2)cn1 has ED50 smaller than 50 µmol/kg.
Outgoing: not fulfilled

Incoming: I'd appreciate it if you could check whether Cc1ccc(C(C)Sc2ncccn2)cn1 (stereo not given) has ED50 smaller than 50 µmol/kg.
Outgoing: not fulfilled

Incoming: I'd appreciate it if you could check whether [O-][S+](Cc1ccncc1)c1ncccn1 (stereo not given) has ED50 smaller than 50 µmol/kg.
Outgoing: not fulfilled

Taken from ChEMBL document CHEMBL1123700.
